This collection of values is drawn from ChEMBL document CHEMBL1201862.

- Test system: U-251
- assay-details: NCI tumour cell line growth inhibition, 48 h
Calls of active or inactive are those of the source. No stated cut-off is given here; in the data, active = GI50 up to about 1.1 µM and inactive = higher.
Labels: class 1 (active), class 0 (inactive)

                                   compound  measured_on  assigned_label
0  CC1=C(C(=O)NNC(=O)c2ccccc2)CC(C(=O)NNC(=O)c2ccccc2)=C(C)N1        U-251         class 0
1        C/C(CC(=O)Nc1cccc(C)c1C)=N\NC(N)=S        U-251         class 0
2  N=C(N)NCCCC(Nc1c2ccccc2nc2ccccc12)C(=O)O (stereo not given)        U-251         class 0
3  COc1cccc2c1C(=O)c1c(O)c3c(c(O)c1C2=O)C[C@@](O)(/C(C)=N\O)C[C@@H]3OC1CC(N)C(O)C(C)O1 (stereo not given in full)        U-251         class 1
4                    COc1ccc(Sc2ccccc2N)cc1        U-251         class 0
